biological target: B. anthracis DHPS (Bacillus anthracis, UniProt Q81VW8)
Sequence (Q81VW8 1-280): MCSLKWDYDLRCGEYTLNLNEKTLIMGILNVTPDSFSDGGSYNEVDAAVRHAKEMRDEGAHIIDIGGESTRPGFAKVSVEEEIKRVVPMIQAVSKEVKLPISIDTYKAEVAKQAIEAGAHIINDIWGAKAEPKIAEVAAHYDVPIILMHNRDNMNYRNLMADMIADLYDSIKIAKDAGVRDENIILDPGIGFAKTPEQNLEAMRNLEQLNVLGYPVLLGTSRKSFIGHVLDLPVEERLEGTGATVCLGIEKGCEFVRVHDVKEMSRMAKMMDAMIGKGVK
assayEndpoint: IC50 (µM)

| compound | assayEndpoint | uom | reading |
| --- | --- | --- | --- |
| Nc1nc2c(c(=O)[nH]1)N=C(CO)CN2 [Control, 6-hydroxymethyl-7,8-dihydropterin] | IC50 | µM | 58.4 |
